Source of measurements: BindingDB's records for doi:10.1016/j.bmcl.2007.03.101

Target: UniProt:P08908
Sequence (P08908 whole entry): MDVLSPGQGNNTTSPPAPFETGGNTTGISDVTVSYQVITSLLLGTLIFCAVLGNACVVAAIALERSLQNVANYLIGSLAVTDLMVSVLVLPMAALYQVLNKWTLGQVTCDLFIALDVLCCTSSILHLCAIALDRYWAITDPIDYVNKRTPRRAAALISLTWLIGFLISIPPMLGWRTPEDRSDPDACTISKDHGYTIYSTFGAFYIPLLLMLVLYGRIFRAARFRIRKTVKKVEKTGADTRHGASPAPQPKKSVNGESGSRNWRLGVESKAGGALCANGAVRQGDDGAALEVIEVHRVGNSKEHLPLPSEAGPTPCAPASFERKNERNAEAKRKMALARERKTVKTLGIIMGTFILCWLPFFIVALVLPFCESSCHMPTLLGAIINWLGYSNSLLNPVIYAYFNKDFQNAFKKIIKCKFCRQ
PROPERTY_NAME: pKi
Interpret pKi as the negative base-10 log of the concentration measured in mol/L.

pKi reading for C[C@H]1CN(c2cccc3cc(F)ccc23)CCN1CC[C@H]1OCC2=CC(C(N)=O)=CCC21 (stereo partly specified) : 7.89
